All figures here come from ChEMBL document CHEMBL1129952.

system: GC3/MTK-; experiment: Inhibitory activity against GC3/M TK- human adreno carcinoma cell lines.
Each entry falls into one class according to its IC50; the ranges are class A = under 3 µM, class B = from 3 µM up to 4 µM, class C = 4 µM and over

# COMPOUND, LABEL CLASS
measured = [
    ("C#CCN(Cc1ccc2nc(C)nc(O)c2c1)c1ccc([S+]([O-])c2ccccc2Cl)cc1 (configuration not stated)", "class C"),
    ("C#CCN(Cc1ccc2nc(C)nc(O)c2c1)c1ccc([S+]([O-])c2ccccc2)c(C(F)(F)F)c1 (configuration not stated)", "class B"),
    ("C#CCN(Cc1ccc2nc(C)nc(O)c2c1)c1ccc(S(=O)(=O)c2ccccc2)c(F)c1", "class A"),
    ("C#CCN(Cc1ccc2nc(C)nc(O)c2c1)c1ccc([S+]([O-])c2ccccc2C)c(C(F)(F)F)c1 (configuration not stated)", "class C"),
    ("C#CCN(Cc1ccc2nc(C)nc(O)c2c1)c1ccc(S(=O)(=O)c2ccccc2C)cc1", "class B"),
    ("C#CCN(Cc1ccc2nc(C)nc(O)c2c1)c1ccc([S+]([O-])c2ccccc2)c(F)c1 (configuration not stated)", "class C"),
    ("C#CCN(Cc1ccc2nc(C)nc(O)c2c1)c1ccc(S(=O)(=O)c2ccccc2C)c(C(F)(F)F)c1", "class C"),
    ("C#CCN(Cc1ccc2nc(C)nc(O)c2c1)c1ccc([S+]([O-])c2ccccc2)c(Cl)c1 (configuration not stated)", "class B"),
    ("C#CCN(Cc1ccc2nc(C)nc(O)c2c1)c1ccc(S(=O)(=O)c2ccccc2Cl)cc1", "class A"),
    ("C#CCN(Cc1ccc2nc(C)nc(O)c2c1)c1ccc(S(=O)(=O)c2ccccc2)cc1", "class A"),
]
